ASSAY_COMMENT: folding enthalpy; higher = less favourable; fluorescence melt of hairpins on a sequencing array, two-state fit
CONDITIONS_USED: sodium 0.088 M
folding enthalpy by entry:
VALUE_KIND: folding enthalpy (kcal/mol)

[[record]]
sequence_record = "GCAAGCGAAAGCTCTTGC ((((((....)))..)))"
quantitative_result = -16.1

[[record]]
sequence_record = "GAGGCCGAAAGGCTACTC ((((((....)))..)))"
quantitative_result = -11.7

[[record]]
sequence_record = "GCTGGGCGAAAGCGTAGC (((..((....))..)))"
quantitative_result = -22.5

[[record]]
sequence_record = "GATCATAGTCATGATC ((((((....))))))"
quantitative_result = -32.9

[[record]]
sequence_record = "GCCACCGGAAACGACGGC (((..((....))..)))"
quantitative_result = -24.9

[[record]]
sequence_record = "GGCTCGACGAAAGTCGCC (((..(((....))))))"
quantitative_result = -8

[[record]]
sequence_record = "GAGACCACGAAAGTGCTC (((..(((....))))))"
quantitative_result = -9.82

[[record]]
sequence_record = "GGTCACGGAAACGCGACC ((((.((....)).))))"
quantitative_result = -50.2

[[record]]
sequence_record = "GACGGCGGAAACACCGTC (((((.(....).)))))"
quantitative_result = -42.4

[[record]]
sequence_record = "GCTCGGCGAAAGCTCAGC (((..((....))..)))"
quantitative_result = -11.9

[[record]]
sequence_record = "GTCCACGAAAGTGCGAC ((((((....))).)))"
quantitative_result = -22.8

[[record]]
sequence_record = "GTAAGGGCGAAAGCCTAC (((..(((....))))))"
quantitative_result = -8.85

[[record]]
sequence_record = "GGAAGGCGAAAGCCATCC (((.(((....))).)))"
quantitative_result = -21.1

[[record]]
sequence_record = "GTACTAGCGAAAGCTTAC (((..(((....))))))"
quantitative_result = -9.73

[[record]]
sequence_record = "GATCTCATGTGAGATC ((((((....))))))"
quantitative_result = -36.2

[[record]]
sequence_record = "GAACGCGGAAACGCGCTC ((.((((....)))).))"
quantitative_result = -15.1

[[record]]
sequence_record = "GATCAGGGTTCTGATC ((((((....))))))"
quantitative_result = -42.1

[[record]]
sequence_record = "GTTGTCGGAAACGACAGC (.(((((....))))).)"
quantitative_result = -24

[[record]]
sequence_record = "GGATGTACGAAAGTATCC (((..(((....))))))"
quantitative_result = -20.2

[[record]]
sequence_record = "GCTCATGGAAACGTGAGC (((((.(....).)))))"
quantitative_result = -47.5

[[record]]
sequence_record = "GATCCTAAATAGGATC ((((((....))))))"
quantitative_result = -35.8

[[record]]
sequence_record = "GAAGTTGGAAACGACTTC (((((.(....).)))))"
quantitative_result = -39

[[record]]
sequence_record = "GATCTGACAACAGATC ((((((....))))))"
quantitative_result = -36.6

[[record]]
sequence_record = "GCGGCGGGAAACCGCCAC (.(((((....))))).)"
quantitative_result = -10.5

[[record]]
sequence_record = "GCGGATAACCGC ((((....))))"
quantitative_result = -19.6

